All figures here come from paper PMC2756588.

# target_entity: T1, Hse1, P38753
# T1 sequence (P38753 208-285, looked up): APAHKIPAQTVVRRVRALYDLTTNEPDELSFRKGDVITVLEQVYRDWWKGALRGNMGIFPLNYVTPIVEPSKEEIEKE
# protocol_summary: SPOT array
# measurement_conditions: median of control spots 1727
observation_type: SPOT intensity

A = VQPTAAPATPPRHIS
B = RVRKTHVPASKRPSG
C = LKQRFFLMFPKSIIW
D = RPKRRAPPPVPKKPS
Task item: I would appreciate it if you could sort these 4 binders by SPOT intensity, starting from the smallest number. Put the labels in the requested order and list them out.
Reply: A, B, C, D

I = EQEEIAPSLPSRNSI
II = HPRFVSPRIPSRIVK
III = RSLRKRPTSPSISGS
Task item: Put the entries in order of SPOT intensity, starting with the largest number. Put the labels in the requested order and list them out.
Reply: III, II, I
(III: 55, II: 9, I: 0)

a = SSAAPPPPPRRATPE
b = GQYRRTIVIPRRFFT
c = ATKSASPTLPTRRSR
d = RMVRRRPLRVQFSAR
e = QTMRQAPKRPDADVA
Task item: Put the entries in order of SPOT intensity, starting with the largest number. Put the labels in the requested order and list them out.
Reply: d, b, c, e, a

P = QFDLKMPSKPIHNLK
Q = DKSRPPRPPPKPLHL
R = QRKSLRRPTLSKPAV
Task item: List by increasing SPOT intensity. Put the labels in the requested order and list them out.
Reply: P, R, Q
(P: 0, R: 10, Q: 36)
